Source: patent US20220177587A1

target: CD28 (Homo sapiens, UniProt P10747); assay: Jurkat/IL2 + CHO/OKT3 +/- PD-L1 reporter assay: PD-L1-dependent CD28 costimulation; type: cell-based; parameters: host or cells: Jurkat cells expressing an IL-2-luciferase reporter; settings: CHO/OKT3/PD-L1 aAPC; 0.6 nM; luciferase signal
result type: PD-L1-Dependent CD28 Costimulation, +PD-L1, 0.6 nM

>>> recorded_number("A71D/L72V/E95K: variant CD80 IgV-Fc, IgV SEQ ID NO:192 (protein) VIHVTKEVKEVATLSCGHNVSVEELAQTRIYWQKEKKMVLTMMSGDMNIWPEYKNRTIFDITNNLSIVILDVRPSDEGTYECVVLKYEKDAFKRKHLAEVTLSVKAD")
524
>>> recorded_number("E35D/D46V/L85Q: variant CD80 IgV-Fc, IgV SEQ ID NO:203 (protein) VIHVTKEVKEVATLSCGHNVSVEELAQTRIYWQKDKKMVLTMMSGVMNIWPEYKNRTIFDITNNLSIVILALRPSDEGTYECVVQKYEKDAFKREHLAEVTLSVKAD")
611
>>> recorded_number("E35D/M47I: variant CD80 IgV-Fc, IgV SEQ ID NO:177 (protein) VIHVTKEVKEVATLSCGHNVSVEELAQTRIYWQKDKKMVLTMMSGDINIWPEYKNRTIFDITNNLSIVILALRPSDEGTYECVVLKYEKDAFKREHLAEVTLSVKAD")
1047
>>> recorded_number("E35D/M47I/L70M: variant CD80 IgV-Fc, IgV SEQ ID NO:199 (SEQ ID NO:125 in b995) (protein) VIHVTKEVKEVATLSCGHNVSVEELAQTRIYWQKDKKMVLTMMSGDINIWPEYKNRTIFDITNNLSIVIMALRPSDEGTYECVVLKYEKDAFKREHLAEVTLSVKAD")
1004
>>> recorded_number("E35G/K54E/A71D/L72P: variant CD80 IgV-Fc, IgV SEQ ID NO:219 (protein) VIHVTKEVKEVATLSCGHNVSVEELAQTRIYWQKGKKMVLTMMSGDMNIWPEYENRTIFDITNNLSIVILDPRPSDEGTYECVVLKYEKDAFKREHLAEVTLSVKAD")
529
>>> recorded_number("E23G/A26S/E35D/T62N/A71D/L72V/L85M: variant CD80 IgV-Fc, IgV SEQ ID NO:216 (protein) VIHVTKEVKEVATLSCGHNVSVGELSQTRIYWQKDKKMVLTMMSGDMNIWPEYKNRTIFDINNNLSIVILDVRPSDEGTYECVVMKYEKDAFKREHLAEVTLSVKAD")
524
